Source of measurements: ChEMBL document CHEMBL1165965

- measured target: Serine/threonine-protein kinase Nek9 (Homo sapiens) (UniProt Q8TD19)
- Sequence (whole entry): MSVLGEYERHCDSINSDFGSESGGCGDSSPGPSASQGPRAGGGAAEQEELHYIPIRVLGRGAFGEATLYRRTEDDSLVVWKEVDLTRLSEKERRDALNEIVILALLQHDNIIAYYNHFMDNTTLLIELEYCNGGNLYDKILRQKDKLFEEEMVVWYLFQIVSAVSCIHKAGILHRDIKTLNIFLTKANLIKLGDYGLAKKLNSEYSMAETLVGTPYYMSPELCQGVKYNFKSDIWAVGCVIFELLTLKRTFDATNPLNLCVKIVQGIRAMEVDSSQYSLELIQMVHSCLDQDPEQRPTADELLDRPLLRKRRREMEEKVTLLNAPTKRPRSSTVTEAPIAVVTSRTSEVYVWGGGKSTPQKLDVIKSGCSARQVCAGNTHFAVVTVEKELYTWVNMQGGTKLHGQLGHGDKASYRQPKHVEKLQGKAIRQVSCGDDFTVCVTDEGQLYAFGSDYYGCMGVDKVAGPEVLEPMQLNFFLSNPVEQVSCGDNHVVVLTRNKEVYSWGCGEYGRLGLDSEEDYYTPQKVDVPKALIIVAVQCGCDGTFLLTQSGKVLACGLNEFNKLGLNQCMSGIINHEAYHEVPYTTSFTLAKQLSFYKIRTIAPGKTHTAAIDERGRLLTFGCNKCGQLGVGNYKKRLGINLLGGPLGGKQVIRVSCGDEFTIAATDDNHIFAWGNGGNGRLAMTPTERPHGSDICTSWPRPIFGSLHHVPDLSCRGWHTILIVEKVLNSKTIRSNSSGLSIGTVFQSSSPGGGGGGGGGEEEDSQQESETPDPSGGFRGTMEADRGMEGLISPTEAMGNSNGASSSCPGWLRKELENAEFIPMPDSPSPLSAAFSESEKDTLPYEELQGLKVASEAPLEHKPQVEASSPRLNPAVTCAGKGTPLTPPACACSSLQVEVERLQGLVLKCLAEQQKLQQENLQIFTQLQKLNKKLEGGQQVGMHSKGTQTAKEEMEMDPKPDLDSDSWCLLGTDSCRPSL
- procedure summary: Inhibition of NEK9 at 1 uM
quantity measured: inhibition

Below: 8 compounds and their reported inhibition.
smiles text: O=C(c1ccc(-c2cnc3c(c2)N(Cc2cc(Cl)ccc2C(F)(F)F)CCN3)cc1)N1CCC(N2CCCC2)CC1
measured target: Serine/threonine-protein kinase Nek9 (Homo sapiens) (UniProt Q8TD19)
inhibition: < 50%
//
smiles text: CN1CCN(c2ccc(-c3cnc4c(c3)N(Cc3cc(F)ccc3F)CCN4)cn2)CC1
measured target: Serine/threonine-protein kinase Nek9 (Homo sapiens) (UniProt Q8TD19)
inhibition: < 50%
//
smiles text: O=C(O)c1ccc(-c2cnc3c(c2)N(Cc2cc(Cl)ccc2C(F)(F)F)CCN3)cc1
measured target: Serine/threonine-protein kinase Nek9 (Homo sapiens) (UniProt Q8TD19)
inhibition: < 50%
//
smiles text: FC(F)(F)c1ccc(Cl)cc1CN1CCNc2ncc(-c3ccnc(N4CCNCC4)c3)cc21
measured target: Serine/threonine-protein kinase Nek9 (Homo sapiens) (UniProt Q8TD19)
inhibition: < 50%
//
smiles text: CC(=O)N1CCN(c2cc(-c3cnc4c(c3)N(Cc3cc(Cl)ccc3C(F)(F)F)CCN4)ccn2)CC1
measured target: Serine/threonine-protein kinase Nek9 (Homo sapiens) (UniProt Q8TD19)
inhibition: < 50%
//
smiles text: O=C(c1ccc(-c2cnc3c(c2)N(Cc2cc(Cl)ccc2C(F)(F)F)CCN3)cc1)N1CCCCC1
measured target: Serine/threonine-protein kinase Nek9 (Homo sapiens) (UniProt Q8TD19)
inhibition: < 50%
//
smiles text: CN1CCN(c2ccc(-c3cnc4c(c3)N(Cc3c(F)ccc(F)c3Cl)CCN4)cn2)CC1
measured target: Serine/threonine-protein kinase Nek9 (Homo sapiens) (UniProt Q8TD19)
inhibition: < 50%
//
smiles text: CN1CCN(c2ccc(-c3cnc4c(c3)N(Cc3cc(Cl)ccc3Cl)CCN4)cn2)CC1
measured target: Serine/threonine-protein kinase Nek9 (Homo sapiens) (UniProt Q8TD19)
inhibition: < 50%

Ask: Read the entry `CN1CCN(c2ccc(-c3cnc4c(c3)N(Cc3cc(Cl)ccc3C(F)(F)F)CCN4)cn2)CC1` and write its reported inhibition.
Result: < 50%

Ask: Query inhibition for `COC1CCN(C(=O)c2ccc(-c3cnc4c(c3)N(Cc3cc(Cl)ccc3C(F)(F)F)CCN4)cc2)CC1`
Result: < 50%

----------
- Test system: Tyrosine-protein kinase ABL1 (Homo sapiens), P00519 [E255K]
- procedure summary: Inhibition of ABL1 E255K mutant at 1 uM
quantity measured: inhibition

Illustrative cases are given below, each with its answer.
smiles text: O=C(c1ccc(-c2cnc3c(c2)N(Cc2cc(Cl)ccc2C(F)(F)F)CCN3)cc1)N1CCCCC1
measured target: Tyrosine-protein kinase ABL1 (Homo sapiens), P00519 [E255K]
inhibition: < 50%
--
smiles text: O=C(c1ccc(-c2cnc3c(c2)N(Cc2cc(Cl)ccc2C(F)(F)F)CCN3)cc1)N1CCC(N2CCCC2)CC1
measured target: Tyrosine-protein kinase ABL1 (Homo sapiens), P00519 [E255K]
inhibition: < 50%
--
smiles text: CN1CCN(c2ccc(-c3cnc4c(c3)N(Cc3c(F)ccc(F)c3Cl)CCN4)cn2)CC1
measured target: Tyrosine-protein kinase ABL1 (Homo sapiens), P00519 [E255K]
inhibition: 70%

Field: next compound
Ask: Supply measured inhibition of `CN1CCN(c2ccc(-c3cnc4c(c3)N(Cc3cc(Cl)ccc3C(F)(F)F)CCN4)cn2)CC1` in your reply.
Result: < 50%

----------
- measured target: UniProtKB Q06418
- Sequence (Q06418 whole entry): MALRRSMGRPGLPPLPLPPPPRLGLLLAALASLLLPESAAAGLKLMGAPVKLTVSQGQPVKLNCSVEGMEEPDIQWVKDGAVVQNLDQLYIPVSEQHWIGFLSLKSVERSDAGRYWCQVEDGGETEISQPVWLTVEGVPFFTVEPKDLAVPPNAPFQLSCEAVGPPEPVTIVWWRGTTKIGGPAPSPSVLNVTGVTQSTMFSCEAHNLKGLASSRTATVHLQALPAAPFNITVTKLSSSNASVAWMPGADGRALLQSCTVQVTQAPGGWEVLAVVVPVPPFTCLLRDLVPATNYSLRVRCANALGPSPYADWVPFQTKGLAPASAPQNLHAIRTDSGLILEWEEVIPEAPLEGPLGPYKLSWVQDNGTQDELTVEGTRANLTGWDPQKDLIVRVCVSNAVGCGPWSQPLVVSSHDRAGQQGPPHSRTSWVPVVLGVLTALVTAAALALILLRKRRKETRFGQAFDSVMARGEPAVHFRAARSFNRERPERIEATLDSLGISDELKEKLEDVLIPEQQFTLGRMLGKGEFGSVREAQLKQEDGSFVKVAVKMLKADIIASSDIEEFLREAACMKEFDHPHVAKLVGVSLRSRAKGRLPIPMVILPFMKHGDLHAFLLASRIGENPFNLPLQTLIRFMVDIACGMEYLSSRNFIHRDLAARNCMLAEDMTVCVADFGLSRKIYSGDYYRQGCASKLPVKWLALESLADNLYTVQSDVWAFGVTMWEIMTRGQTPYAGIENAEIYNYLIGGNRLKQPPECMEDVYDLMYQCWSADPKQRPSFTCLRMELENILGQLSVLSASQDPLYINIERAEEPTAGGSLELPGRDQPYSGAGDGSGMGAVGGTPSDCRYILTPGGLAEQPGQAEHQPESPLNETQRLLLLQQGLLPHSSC
- procedure summary: Inhibition of TYRO3 at 1 uM
quantity measured: inhibition

Some entries whose results are on file:
smiles text: FC(F)(F)c1ccc(Cl)cc1CN1CCNc2ncc(-c3ccnc(N4CCNCC4)c3)cc21
measured target: UniProtKB Q06418
inhibition: < 50%

smiles text: CN1CCN(c2ccc(-c3cnc4c(c3)N(Cc3cc(F)ccc3F)CCN4)cn2)CC1
measured target: UniProtKB Q06418
inhibition: < 50%

smiles text: CC(=O)N1CCN(c2cc(-c3cnc4c(c3)N(Cc3cc(Cl)ccc3C(F)(F)F)CCN4)ccn2)CC1
measured target: UniProtKB Q06418
inhibition: < 50%

smiles text: O=C(c1ccc(-c2cnc3c(c2)N(Cc2cc(Cl)ccc2C(F)(F)F)CCN3)cc1)N1CCCCC1
measured target: UniProtKB Q06418
inhibition: < 50%

smiles text: COC1CCN(C(=O)c2ccc(-c3cnc4c(c3)N(Cc3cc(Cl)ccc3C(F)(F)F)CCN4)cc2)CC1
measured target: UniProtKB Q06418
inhibition: < 50%

smiles text: CN1CCN(c2ccc(-c3cnc4c(c3)N(Cc3cc(Cl)ccc3Cl)CCN4)cn2)CC1
measured target: UniProtKB Q06418
inhibition: < 50%

Ask: Hello, please tell me recorded inhibition for this one: `CN1CCN(c2ccc(-c3cnc4c(c3)N(Cc3cc(Cl)ccc3C(F)(F)F)CCN4)cn2)CC1`
Result: < 50%

Ask: # return recorded inhibition for entry `CN1CCN(c2ccc(-c3cnc4c(c3)N(Cc3c(F)ccc(F)c3Cl)CCN4)cn2)CC1`
Result: < 50%

Ask: # return recorded inhibition for input `O=C(c1ccc(-c2cnc3c(c2)N(Cc2cc(Cl)ccc2C(F)(F)F)CCN3)cc1)N1CCC(N2CCCC2)CC1`
Result: < 50%

Ask: Supply recorded inhibition for `O=C(O)c1ccc(-c2cnc3c(c2)N(Cc2cc(Cl)ccc2C(F)(F)F)CCN3)cc1` here.
Result: < 50%

----------
- measured target: Receptor-type tyrosine-protein kinase FLT3 (Homo sapiens) (UniProt P36888)
- Sequence (P36888 whole entry): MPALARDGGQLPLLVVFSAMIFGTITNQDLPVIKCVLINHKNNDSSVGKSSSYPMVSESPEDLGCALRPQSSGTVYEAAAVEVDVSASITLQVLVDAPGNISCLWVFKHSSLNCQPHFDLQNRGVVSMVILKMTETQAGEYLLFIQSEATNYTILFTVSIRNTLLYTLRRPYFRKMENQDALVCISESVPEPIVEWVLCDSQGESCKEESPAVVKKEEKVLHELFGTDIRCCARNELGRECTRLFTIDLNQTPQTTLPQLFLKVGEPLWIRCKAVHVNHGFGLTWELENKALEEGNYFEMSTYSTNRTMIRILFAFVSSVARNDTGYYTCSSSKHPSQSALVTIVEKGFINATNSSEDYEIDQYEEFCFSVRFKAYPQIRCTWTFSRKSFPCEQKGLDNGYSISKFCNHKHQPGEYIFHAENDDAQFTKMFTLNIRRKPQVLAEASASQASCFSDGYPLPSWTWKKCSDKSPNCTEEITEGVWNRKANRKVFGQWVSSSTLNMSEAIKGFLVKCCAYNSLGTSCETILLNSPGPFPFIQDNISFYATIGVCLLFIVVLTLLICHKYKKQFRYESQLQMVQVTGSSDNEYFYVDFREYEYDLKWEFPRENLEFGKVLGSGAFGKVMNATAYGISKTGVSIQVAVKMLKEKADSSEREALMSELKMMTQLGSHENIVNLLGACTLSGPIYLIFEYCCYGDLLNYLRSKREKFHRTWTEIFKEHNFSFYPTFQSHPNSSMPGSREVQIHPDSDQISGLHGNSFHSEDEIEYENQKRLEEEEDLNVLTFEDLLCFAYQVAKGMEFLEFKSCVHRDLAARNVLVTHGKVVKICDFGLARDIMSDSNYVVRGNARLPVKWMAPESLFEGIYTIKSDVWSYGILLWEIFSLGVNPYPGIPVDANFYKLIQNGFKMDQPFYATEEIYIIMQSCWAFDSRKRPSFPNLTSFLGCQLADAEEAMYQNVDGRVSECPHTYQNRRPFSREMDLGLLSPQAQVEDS
- procedure summary: Inhibition of FLT3 at 1 uM
Known inhibition of a selection of compounds
Enter your answer as a number in %; do not include the unit.

smiles text: CN1CCN(c2ccc(-c3cnc4c(c3)N(Cc3cc(F)ccc3F)CCN4)cn2)CC1
measured target: Receptor-type tyrosine-protein kinase FLT3 (Homo sapiens) (UniProt P36888)
inhibition [%]: 64

Ask: Provide inhibition value for the following compound: `CC(=O)N1CCN(c2cc(-c3cnc4c(c3)N(Cc3cc(Cl)ccc3C(F)(F)F)CCN4)ccn2)CC1`
Result: 83

Ask: Given `FC(F)(F)c1ccc(Cl)cc1CN1CCNc2ncc(-c3ccnc(N4CCNCC4)c3)cc21` , respond with its inhibition.
Result: 95

Ask: For the compound `O=C(c1ccc(-c2cnc3c(c2)N(Cc2cc(Cl)ccc2C(F)(F)F)CCN3)cc1)N1CCC(N2CCCC2)CC1` , report inhibition.
Result: 99.3

----------
- Test system: Tyrosine-protein kinase ABL1 (Homo sapiens), P00519 [T315I]
- procedure summary: Inhibition of ABL1 T315I mutant at 1 uM
quantity measured: inhibition

smiles text: CN1CCN(c2ccc(-c3cnc4c(c3)N(Cc3cc(Cl)ccc3Cl)CCN4)cn2)CC1
inhibition: < 50%
//
smiles text: CN1CCN(c2ccc(-c3cnc4c(c3)N(Cc3cc(Cl)ccc3C(F)(F)F)CCN4)cn2)CC1
inhibition: < 50%
//
smiles text: CC(=O)N1CCN(c2cc(-c3cnc4c(c3)N(Cc3cc(Cl)ccc3C(F)(F)F)CCN4)ccn2)CC1
inhibition: < 50%
//
smiles text: FC(F)(F)c1ccc(Cl)cc1CN1CCNc2ncc(-c3ccnc(N4CCNCC4)c3)cc21
inhibition: < 50%

Read the next record carefully.
Ask: Note inhibition for the compound shown: `CN1CCN(c2ccc(-c3cnc4c(c3)N(Cc3c(F)ccc(F)c3Cl)CCN4)cn2)CC1`
Result: 95%
